Please provide measured self-splicing fitness (ln) for the entries that follow.
procedureDetails: self-splicing fitness, log relative to wild type (ln ratio); higher = more splicing; Tetrahymena group I intron in knt gene, E. coli kanamycin selection, DiMSum; sequences stand for … in CUCUCU…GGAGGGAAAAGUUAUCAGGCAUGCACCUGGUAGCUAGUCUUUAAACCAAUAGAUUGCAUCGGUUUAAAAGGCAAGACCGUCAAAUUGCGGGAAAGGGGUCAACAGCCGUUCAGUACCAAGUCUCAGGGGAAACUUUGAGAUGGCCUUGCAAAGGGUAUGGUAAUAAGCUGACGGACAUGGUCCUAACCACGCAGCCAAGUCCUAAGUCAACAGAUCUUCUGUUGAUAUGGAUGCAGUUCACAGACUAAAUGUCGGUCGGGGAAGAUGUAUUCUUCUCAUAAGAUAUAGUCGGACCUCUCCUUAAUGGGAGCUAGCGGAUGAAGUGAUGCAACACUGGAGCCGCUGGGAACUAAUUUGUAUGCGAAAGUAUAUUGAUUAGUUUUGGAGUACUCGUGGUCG;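 further: selection with 25 µg/mL kanamycin versus none on LB agar overnight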
experimentalSetup: 30 °C
Answers are plain numbers.

Below are worked cases with known answers.
1. AUUAAGCAAUAUUACGUCCC -0.338
2. GGCCAGCAAUAUUACGCGUA -1.07
3. UGACAGCAAUAUUACGGAGC -4.35

Answer for every listed entry: what is its self-splicing fitness (ln)? The entries follow.
1. CUAAAGCAAUAUUACGGCAC
2. GCGUAGCAAUAUUACGUGUC
3. GGGGAGCAAUAUUACGAAGG
4. GCGAAGCAAUAUUACGGAAA

1: -2.96; 2: -3.83; 3: -2.62; 4: -3.34

Numbers sourced from the supplement of paper PMC7877785.
